Target: MAPKAPK5 (human) (UniProt Q8IW41)
Sequence (Q8IW41 whole entry, looked up): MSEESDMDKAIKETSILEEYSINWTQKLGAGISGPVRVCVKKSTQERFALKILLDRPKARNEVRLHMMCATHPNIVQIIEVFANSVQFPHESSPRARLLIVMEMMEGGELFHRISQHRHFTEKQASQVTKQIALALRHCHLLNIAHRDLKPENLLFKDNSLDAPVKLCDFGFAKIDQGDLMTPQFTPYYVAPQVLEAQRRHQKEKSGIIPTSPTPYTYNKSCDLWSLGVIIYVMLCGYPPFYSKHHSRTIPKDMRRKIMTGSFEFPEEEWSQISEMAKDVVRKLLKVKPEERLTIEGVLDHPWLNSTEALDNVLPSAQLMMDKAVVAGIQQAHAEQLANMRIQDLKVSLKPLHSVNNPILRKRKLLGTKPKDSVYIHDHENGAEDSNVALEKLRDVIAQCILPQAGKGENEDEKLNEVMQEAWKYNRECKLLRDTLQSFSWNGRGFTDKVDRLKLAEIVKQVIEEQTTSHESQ
Assay: radiometric filter-binding kinase assay, Kinase HotSpot
Settings: compound 0.5 µM; ATP 10 µM

{"STRUCTURE": "COc1cc2ncnc(Nc3ccc(Oc4ccccc4)cc3)c2cc1OC", "TARGET_OR_SYSTEM": "MAPKAPK5 (human) (UniProt Q8IW41)", "UNIT_DESCRIPTOR": "%", "residual activity": 98}
{"STRUCTURE": "O=C1NC(=O)c2c1c1c3ccccc3[nH]c1n1cncc21", "TARGET_OR_SYSTEM": "MAPKAPK5 (human) (UniProt Q8IW41)", "UNIT_DESCRIPTOR": "%", "residual activity": 123}
{"STRUCTURE": "O=C(c1cc2cc(O)ccc2[nH]1)c1cc2cc(O)ccc2[nH]1", "TARGET_OR_SYSTEM": "MAPKAPK5 (human) (UniProt Q8IW41)", "UNIT_DESCRIPTOR": "%", "residual activity": 89.6}
{"STRUCTURE": "CS(=O)(=O)CCNCc1ccc(-c2ccc3ncnc(Nc4ccc(OCc5cccc(F)c5)c(Cl)c4)c3c2)o1", "TARGET_OR_SYSTEM": "MAPKAPK5 (human) (UniProt Q8IW41)", "UNIT_DESCRIPTOR": "%", "residual activity": 92.8}
{"STRUCTURE": "COc1ccc2c(c1)c(C1=C(c3c[nH]c4ccccc34)C(=O)NC1=O)cn2CCCN(C)C", "TARGET_OR_SYSTEM": "MAPKAPK5 (human) (UniProt Q8IW41)", "UNIT_DESCRIPTOR": "%", "residual activity": 98.1}
{"STRUCTURE": "Cn1c2ccccc2c2c3c(c4c5ccccc5n(CCC#N)c4c21)CNC3=O", "TARGET_OR_SYSTEM": "MAPKAPK5 (human) (UniProt Q8IW41)", "UNIT_DESCRIPTOR": "%", "residual activity": 127}
{"STRUCTURE": "Fc1ccc(-c2nc3n(c2-c2ccncc2)CCS3)cc1", "TARGET_OR_SYSTEM": "MAPKAPK5 (human) (UniProt Q8IW41)", "UNIT_DESCRIPTOR": "%", "residual activity": 97.2}

----------
Entries and their residual activity
Target: DMPK (human) (UniProt Q09013)
Sequence (Q09013 whole entry, looked up): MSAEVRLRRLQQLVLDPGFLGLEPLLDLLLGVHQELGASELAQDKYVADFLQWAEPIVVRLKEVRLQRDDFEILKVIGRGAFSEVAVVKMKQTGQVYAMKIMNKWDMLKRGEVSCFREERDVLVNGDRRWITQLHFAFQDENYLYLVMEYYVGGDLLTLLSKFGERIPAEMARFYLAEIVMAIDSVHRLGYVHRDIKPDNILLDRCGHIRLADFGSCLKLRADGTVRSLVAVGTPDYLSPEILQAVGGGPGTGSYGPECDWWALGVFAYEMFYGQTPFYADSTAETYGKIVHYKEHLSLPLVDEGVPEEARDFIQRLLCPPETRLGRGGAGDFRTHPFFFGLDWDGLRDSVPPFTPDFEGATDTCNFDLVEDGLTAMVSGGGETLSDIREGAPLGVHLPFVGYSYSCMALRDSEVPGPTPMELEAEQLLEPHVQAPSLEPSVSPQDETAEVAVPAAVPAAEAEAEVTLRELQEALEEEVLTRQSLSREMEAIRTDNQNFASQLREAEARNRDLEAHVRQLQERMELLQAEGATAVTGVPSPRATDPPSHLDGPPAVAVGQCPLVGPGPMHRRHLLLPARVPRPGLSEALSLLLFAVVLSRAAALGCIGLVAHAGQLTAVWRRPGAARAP
Assay: radiometric filter-binding kinase assay, Kinase HotSpot
Settings: compound 0.5 µM; ATP 10 µM

{"STRUCTURE": "Cc1cncc2cccc(S(=O)(=O)N3CCCN(C(=O)CN)C[C@H]3C)c12", "residual activity (%)": 105}
{"STRUCTURE": "O=C1C(Cl)=C(N2C(=O)CCC2=O)C(=O)c2ccccc21", "residual activity (%)": 98.5}
{"STRUCTURE": "CS(=O)(=O)CCNCc1ccc(-c2ccc3ncnc(Nc4ccc(OCc5cccc(F)c5)c(Cl)c4)c3c2)o1", "residual activity (%)": 94.7}

----------
Target: WEE1 (human)
Test: radiometric filter-binding kinase assay, Kinase HotSpot
Conditions: compound 0.5 µM; ATP 10 µM
Entries and their residual activity

{"STRUCTURE": "O=C1C(Cl)=C(N2C(=O)CCC2=O)C(=O)c2ccccc21", "residual activity, %": 93}
{"STRUCTURE": "COc1ccc2c(c1)c(C1=C(c3c[nH]c4ccccc34)C(=O)NC1=O)cn2CCCN(C)C", "residual activity, %": 85.1}
{"STRUCTURE": "O=C(c1cc2cc(O)ccc2[nH]1)c1cc2cc(O)ccc2[nH]1", "residual activity, %": 90.6}
{"STRUCTURE": "O=C1NC(=O)c2c1c1c3ccccc3[nH]c1n1cncc21", "residual activity, %": 94.7}

----------
Target: UniProt Q8WTQ7
Sequence (Q8WTQ7 whole entry, looked up): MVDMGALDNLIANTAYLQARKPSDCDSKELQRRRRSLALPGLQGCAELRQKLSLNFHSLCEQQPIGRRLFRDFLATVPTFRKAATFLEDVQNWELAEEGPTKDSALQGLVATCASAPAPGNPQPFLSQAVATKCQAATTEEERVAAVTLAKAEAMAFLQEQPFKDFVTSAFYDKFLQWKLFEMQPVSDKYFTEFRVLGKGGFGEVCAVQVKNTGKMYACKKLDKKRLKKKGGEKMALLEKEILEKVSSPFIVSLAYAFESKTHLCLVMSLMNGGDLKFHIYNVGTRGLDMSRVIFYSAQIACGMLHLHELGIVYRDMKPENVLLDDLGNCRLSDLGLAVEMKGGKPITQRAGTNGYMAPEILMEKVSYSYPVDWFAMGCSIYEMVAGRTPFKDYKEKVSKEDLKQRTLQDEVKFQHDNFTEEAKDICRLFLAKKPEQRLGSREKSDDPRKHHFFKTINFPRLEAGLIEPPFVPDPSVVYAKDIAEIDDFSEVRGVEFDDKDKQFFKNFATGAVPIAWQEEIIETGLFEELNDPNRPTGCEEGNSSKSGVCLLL
Experiment: radiometric filter-binding kinase assay, Kinase HotSpot
Conditions: compound 0.5 µM; ATP 10 µM

{"STRUCTURE": "Cc1cncc2cccc(S(=O)(=O)N3CCCN(C(=O)CN)C[C@H]3C)c12", "residual activity, %": 88.8}
{"STRUCTURE": "NC(=O)c1cccc(-c2cc(Nc3ccc(OC(F)(F)F)cc3)ncn2)c1", "residual activity, %": 97.1}
{"STRUCTURE": "C[C@@H]1CCN(C(=O)CC#N)C[C@@H]1N(C)c1ncnc2[nH]ccc12", "residual activity, %": 102}
{"STRUCTURE": "O=C1NC(=O)c2c1c1c3ccccc3[nH]c1n1cncc21", "residual activity, %": 96.2}
{"STRUCTURE": "CN(C)S(=O)(=O)c1ccc2c(c1)/C(=C/c1cc3c([nH]1)CCCC3)C(=O)N2", "residual activity, %": 82.3}
{"STRUCTURE": "CS(=O)(=O)CCNCc1ccc(-c2ccc3ncnc(Nc4ccc(OCc5cccc(F)c5)c(Cl)c4)c3c2)o1", "residual activity, %": 95.8}
{"STRUCTURE": "O=C1c2ccccc2-c2nc3nnnn3nc21", "residual activity, %": 78.1}
{"STRUCTURE": "COc1ccc(S(=O)(=O)N(CCO)c2ccccc2CN(C)C/C=C/c2ccc(Cl)cc2)cc1", "residual activity, %": 114}
{"STRUCTURE": "COc1cc2ncnc(Nc3ccc(OCc4ccccc4)cc3)c2cc1OC", "residual activity, %": 101}

----------
Molecular target: MERTK (human)
Test: radiometric filter-binding kinase assay, Kinase HotSpot
Conditions: compound 0.5 µM; ATP 10 µM
Binarize residual activity at 90%; below is class 1, at or above is class 0.

{"STRUCTURE": "NC(=O)c1cccc(-c2cc(Nc3ccc(OC(F)(F)F)cc3)ncn2)c1", "GROUP_LABEL": "class 0"}
{"STRUCTURE": "COc1cc2ncnc(Nc3ccc(OCc4ccccc4)cc3)c2cc1OC", "GROUP_LABEL": "class 1"}
{"STRUCTURE": "O=C(c1cc2cc(O)ccc2[nH]1)c1cc2cc(O)ccc2[nH]1", "GROUP_LABEL": "class 1"}

----------
Entries and their residual activity
Biological target: PBK (human)
Experiment: radiometric filter-binding kinase assay, Kinase HotSpot
Conditions: compound 0.5 µM; ATP 10 µM
ASSAY_METRIC: residual activity

{"STRUCTURE": "c1ccc2c(-c3ccncc3)c[nH]c2c1", "ASSAY_METRIC": "residual activity", "VALUE": "97.1%"}
{"STRUCTURE": "O=C1C(Cl)=C(N2C(=O)CCC2=O)C(=O)c2ccccc21", "ASSAY_METRIC": "residual activity", "VALUE": "106%"}
{"STRUCTURE": "Ic1cccc(CSc2nnc(-c3ccncc3)o2)c1", "ASSAY_METRIC": "residual activity", "VALUE": "62.7%"}

----------
Molecular target: IGF1R (human) (UniProt P08069)
Sequence (P08069 whole entry, looked up): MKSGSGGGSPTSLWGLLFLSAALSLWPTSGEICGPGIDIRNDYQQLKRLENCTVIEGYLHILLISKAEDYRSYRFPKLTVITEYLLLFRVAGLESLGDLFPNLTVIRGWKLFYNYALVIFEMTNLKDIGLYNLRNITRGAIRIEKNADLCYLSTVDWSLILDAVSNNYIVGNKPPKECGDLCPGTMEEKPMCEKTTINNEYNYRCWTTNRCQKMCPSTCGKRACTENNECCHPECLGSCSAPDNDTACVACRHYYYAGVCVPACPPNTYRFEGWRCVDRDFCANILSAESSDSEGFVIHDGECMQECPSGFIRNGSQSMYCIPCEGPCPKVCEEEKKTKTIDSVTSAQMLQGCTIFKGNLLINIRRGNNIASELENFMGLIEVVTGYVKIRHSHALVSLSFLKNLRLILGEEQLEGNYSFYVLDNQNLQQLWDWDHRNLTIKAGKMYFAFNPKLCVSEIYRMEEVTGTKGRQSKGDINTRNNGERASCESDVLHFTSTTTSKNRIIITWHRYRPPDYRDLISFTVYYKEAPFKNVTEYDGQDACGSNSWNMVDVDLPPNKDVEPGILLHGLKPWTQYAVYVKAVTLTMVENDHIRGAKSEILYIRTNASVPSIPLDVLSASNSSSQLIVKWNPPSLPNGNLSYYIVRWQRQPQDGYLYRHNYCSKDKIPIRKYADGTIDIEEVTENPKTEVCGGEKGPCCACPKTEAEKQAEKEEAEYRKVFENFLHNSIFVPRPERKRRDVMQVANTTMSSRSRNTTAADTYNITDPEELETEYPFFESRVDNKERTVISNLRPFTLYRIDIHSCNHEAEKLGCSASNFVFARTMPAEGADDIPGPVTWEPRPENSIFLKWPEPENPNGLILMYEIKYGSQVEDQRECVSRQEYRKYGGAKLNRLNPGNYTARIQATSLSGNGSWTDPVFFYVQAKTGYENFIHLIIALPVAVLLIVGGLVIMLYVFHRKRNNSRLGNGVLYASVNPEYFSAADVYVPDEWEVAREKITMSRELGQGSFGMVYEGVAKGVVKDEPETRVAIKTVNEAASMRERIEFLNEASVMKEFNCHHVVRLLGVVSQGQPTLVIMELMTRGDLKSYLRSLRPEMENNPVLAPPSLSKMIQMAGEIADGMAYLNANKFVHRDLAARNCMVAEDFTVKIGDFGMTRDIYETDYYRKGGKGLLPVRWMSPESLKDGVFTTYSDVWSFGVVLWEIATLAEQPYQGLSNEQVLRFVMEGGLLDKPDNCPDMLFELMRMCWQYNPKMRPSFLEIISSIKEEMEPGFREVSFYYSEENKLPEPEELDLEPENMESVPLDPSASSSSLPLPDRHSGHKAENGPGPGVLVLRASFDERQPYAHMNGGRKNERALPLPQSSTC
Assay: radiometric filter-binding kinase assay, Kinase HotSpot
Details: compound 0.5 µM; ATP 10 µM

{"STRUCTURE": "Cc1nc(-c2ccccc2)c(-c2ccncc2)o1", "residual activity [%]": 99.9}
{"STRUCTURE": "COc1ccc(Cl)cc1NC(=O)Nc1cc(C)nc2ccccc12", "residual activity [%]": 94.9}
{"STRUCTURE": "O=C(c1cc2cc(O)ccc2[nH]1)c1cc2cc(O)ccc2[nH]1", "residual activity [%]": 103}
{"STRUCTURE": "COc1cc(Nc2c(C#N)cnc3cc(OCCCN4CCN(C)CC4)c(OC)cc23)c(Cl)cc1Cl", "residual activity [%]": 91.5}
{"STRUCTURE": "NC(=O)c1cccc(-c2cc(Nc3ccc(OC(F)(F)F)cc3)ncn2)c1", "residual activity [%]": 91}
{"STRUCTURE": "Fc1ccc(-c2nc3n(c2-c2ccncc2)CCS3)cc1", "residual activity [%]": 106}
{"STRUCTURE": "N#C/C(=C\\c1ccc(O)c(O)c1)C(=O)NCc1ccccc1", "residual activity [%]": 85.1}
{"STRUCTURE": "Cn1c2ccccc2c2c3c(c4c5ccccc5n(CCC#N)c4c21)CNC3=O", "residual activity [%]": 98.3}
{"STRUCTURE": "COc1ccc(S(=O)(=O)N(CCO)c2ccccc2CN(C)C/C=C/c2ccc(Cl)cc2)cc1", "residual activity [%]": 103}
{"STRUCTURE": "CCCCc1c(-c2ccc(OC)cc2)[nH]c2nccnc12", "residual activity [%]": 83.9}

----------
Biological target: UniProt P41279
Sequence (P41279 whole entry, looked up): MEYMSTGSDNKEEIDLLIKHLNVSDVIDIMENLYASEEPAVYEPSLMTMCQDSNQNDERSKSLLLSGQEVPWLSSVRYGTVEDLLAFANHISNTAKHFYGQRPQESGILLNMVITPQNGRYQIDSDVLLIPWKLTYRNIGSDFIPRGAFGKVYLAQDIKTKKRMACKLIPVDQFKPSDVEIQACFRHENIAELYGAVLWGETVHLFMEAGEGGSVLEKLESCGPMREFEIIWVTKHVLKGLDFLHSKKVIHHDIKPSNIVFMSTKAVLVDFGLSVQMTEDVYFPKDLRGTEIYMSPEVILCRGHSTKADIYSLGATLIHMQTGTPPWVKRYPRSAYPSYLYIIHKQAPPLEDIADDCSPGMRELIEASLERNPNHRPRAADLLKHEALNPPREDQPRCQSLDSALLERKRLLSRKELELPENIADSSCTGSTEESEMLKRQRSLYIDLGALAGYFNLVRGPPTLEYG
Test: radiometric filter-binding kinase assay, Kinase HotSpot
Details: compound 0.5 µM; ATP 10 µM
Entries and their residual activity

{"STRUCTURE": "O=C1c2ccccc2-c2nc3nnnn3nc21", "UNIT_DESCRIPTOR": "%", "residual activity": 75.9}
{"STRUCTURE": "COc1cc2ncnc(Nc3ccc(OCc4ccccc4)cc3)c2cc1OC", "UNIT_DESCRIPTOR": "%", "residual activity": 90.1}
{"STRUCTURE": "Cc1cncc2cccc(S(=O)(=O)N3CCCN(C(=O)CN)C[C@H]3C)c12", "UNIT_DESCRIPTOR": "%", "residual activity": 99.9}
{"STRUCTURE": "Cc1cccc(-c2nc(C(C)(C)C)[nH]c2-c2ccc3c(c2)OCO3)n1", "UNIT_DESCRIPTOR": "%", "residual activity": 94.5}
{"STRUCTURE": "O=C(c1cc2cc(O)ccc2[nH]1)c1cc2cc(O)ccc2[nH]1", "UNIT_DESCRIPTOR": "%", "residual activity": 93}
{"STRUCTURE": "N#Cc1c[nH]c2c[nH]/c(=N\\Cc3cccnc3)cc2/c1=N\\c1ccc(F)c(Cl)c1", "UNIT_DESCRIPTOR": "%", "residual activity": 79.1}
{"STRUCTURE": "c1ccc2c(-c3ccncc3)c[nH]c2c1", "UNIT_DESCRIPTOR": "%", "residual activity": 99}
